target: T1, recombinant human CD3 epsilon/gamma heterodimer (human, UniProt P07766 23-126; P09693 23-116); assay: Octet BLI, mAb on FAB2G sensor, hCD3 E/G 200-50 nM; R^2 0.98
T1 construct: Recombinant protein in solution (200-50 nM) in the Octet assay; also called hCD3 E/G
T1 sequence (P07766 23-126, chain 1 of 2): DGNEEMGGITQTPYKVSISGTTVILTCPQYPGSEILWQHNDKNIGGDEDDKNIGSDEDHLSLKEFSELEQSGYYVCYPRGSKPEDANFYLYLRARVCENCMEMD
T1 sequence (P09693 23-116, chain 2 of 2): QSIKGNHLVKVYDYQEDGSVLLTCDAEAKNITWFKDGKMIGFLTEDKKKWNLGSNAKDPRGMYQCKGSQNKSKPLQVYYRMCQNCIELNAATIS
Listing of recorded Response by entry.
// return a plain number; no unit text

These recorded examples may help you get a feel for the data.
BINDER	OBS_VALUE
ABL-CD3-51 (antibody, V domains shown, Chimeric hybridoma mAb: human V, CH1, upper hinge; mouse middle hinge, CH2, CH3) VH: EVQLVESGGGLVKPGGSLRLSCAASGFTFSSYSMNWVRQAPGKGLEWVSSISRSSSYIYYADSVKGRFTISRDNAKNSLYLQMNSLRAEDTAVYYCARERWELLYFDYWGQGTLVTVSS VL: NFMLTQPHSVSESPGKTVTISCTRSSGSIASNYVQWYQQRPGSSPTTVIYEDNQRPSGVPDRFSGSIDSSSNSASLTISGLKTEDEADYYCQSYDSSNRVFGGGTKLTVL	0.06
ABL-CD3-60 (antibody, V domains shown, Chimeric hybridoma mAb: human V, CH1, upper hinge; mouse middle hinge, CH2, CH3) VH: EVQLVESGGGLVKPGGSLRLSCAASGFTFSIYSMNWVRQAPGKGLEWVSSISSGSSYIYYADSVKGRFTISRDNAKSSLFLQMNSLRAEDTAVYYCAREKRELLFDYWGQGTLVTVSS VL: NFMLTQPHSVSESPGKTVTISCTRSSGSIASNYVQWYQQRPGSSPTTVIYEDNQRPSGVPDRFSGSIDRSSNSASLTISGLKTEDEADYYCQSYDSSNRVFGGGTKLTVL	0.07
ABL-CD3-52 (antibody, V domains shown, Chimeric hybridoma mAb: human V, CH1, upper hinge; mouse middle hinge, CH2, CH3) VH: EVQLVESGGGLVKPGGSLRLSCAASGFTFSYYSMNWVRQAPGKGLEWVSSISRSTTYIYYADSVKGRFTISRDNAKNSLYLQMNSLRAEDTAVYYCARDGKGAIFLDYWGQGTLVTVSS VL: SYELTQPPSVSVSPGQTARITCSGDALPKKYAYWYQQKSGQAPVLVIYEDSKRPSGIPERFSGSSSGTMATLTISGAQVEDEADYYCYSTDSSGNHRVFGGGTKLTVL	0.14
ABL-CD3-46 (antibody, V domains shown, Chimeric hybridoma mAb: human V, CH1, upper hinge; mouse middle hinge, CH2, CH3) VH: EVQLVESGGGLVKPGGSLRLSCSASGFTFSTYTMNWVRQAPGKGLDWVSSISKSSTYIYYADSVKGRFTISRDNAKNSLYLQMNSLRAEDTAVYYCARERRTLAFDIWGQGTMVTVSS VL: NFMLTQPHSVSESPGKTVTISCTRSSGSIASNYVQWYQQRPGSSPTTVIYEDNQRPSGVPDRFSGSIDSSSNSASLTISGLKTEDEADYYCQCYDRSNRVFGGGTKLTVL	0.88

Moving on to another binder below.
For ABL-CD3-62 (antibody, V domains shown, Chimeric hybridoma mAb: human V, CH1, upper hinge; mouse middle hinge, CH2, CH3) VH: EVQLVESGGGLVKPGGSLRLSCAASGFTFSSYSMNWVRQAPGKGLEWVSSISRSSGYIFYADSVKGRFTISRDNAKNSLYLQMNSLRAEDTAVYYCVRERVGAGFDYWGQGTLVTVSS VL: NFMLTQPHSVSESPGKTVAISCTRSSGSIASNYVQWYQQRPGSSPTAVIYEDNQRPSGVPDRFSGSIDSSSNSAFLTISGLKTEDEADYYCQSYDSSNRVFGGGTKLTVL the binder record lists Response as 0.69
